Test system: KP2 (KRAS G12R)
Test: 3D cell proliferation inhibition test (CellTiter-Glo 3D, 7 days), KP2
Format: cell-based
Conditions: 168 h, read-out: Inhibitory activity on cell proliferation (IC50) KP2 (KRAS G12R)
Reported Endpoint: IC50

CC1(O)COCCN(c2nc(OCC34CCCN3C(c3cc(F)c(F)c(F)c3)CC4)nc3c(F)c(-c4cccc5sc(N)c(C#N)c45)c(I)cc23)C1 (single isomer, unassigned) [Example 31] ... 59.1 nM
CC1(O)COCCN(c2nc(OCC34CCCN3C(c3cc(F)c(F)c(F)c3)CC4)nc3c(F)c(-c4cccc5sc(N)c(C#N)c45)c(Br)cc23)C1 (single isomer, unassigned) [Example 26] ... 56.6 nM

The origin of these recorded values is patent EP4778933A1.
